- target-or-system: T1, hPD-1-Fc (human, UniProt Q15116 25-167)
- T1 construct: domain: IgV domain; also called human PD-1-Fc; not shown: human IgG1 Fc
- T1 sequence (Q15116 25-167 limits assumed): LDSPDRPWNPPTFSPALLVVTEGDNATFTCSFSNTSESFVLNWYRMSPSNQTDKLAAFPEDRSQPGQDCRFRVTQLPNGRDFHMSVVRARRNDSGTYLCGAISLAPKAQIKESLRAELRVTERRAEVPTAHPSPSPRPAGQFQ
- experiment: blocking ELISA, hPD-1-Fc to hPD-L1-Fc
Consider the following binders and their measured Inhibition % at 5.6 nM readings.

[
  {
    "binder": "33C4 (antibody, V domains shown, also called 780_39) VH: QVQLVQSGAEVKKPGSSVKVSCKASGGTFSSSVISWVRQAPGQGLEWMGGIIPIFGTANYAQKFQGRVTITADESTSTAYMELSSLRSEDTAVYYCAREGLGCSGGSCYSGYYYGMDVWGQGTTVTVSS VL: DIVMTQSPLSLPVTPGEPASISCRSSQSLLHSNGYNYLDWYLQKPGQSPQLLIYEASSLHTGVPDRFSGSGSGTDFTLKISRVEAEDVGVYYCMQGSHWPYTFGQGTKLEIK",
    "measurement-unit": "%",
    "Inhibition % at 5.6 nM": 91.2
  },
  {
    "binder": "34C1 (antibody, V domains shown) VH: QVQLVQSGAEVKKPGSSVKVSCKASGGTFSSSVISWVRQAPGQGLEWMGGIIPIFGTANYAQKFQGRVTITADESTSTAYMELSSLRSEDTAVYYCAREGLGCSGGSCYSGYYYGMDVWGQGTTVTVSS VL: DIVMTQSPLSLPVTPGEPASISCRSSESLLYSNGNTYLDWYLQKPGQSPQLLIYEVSNRASGVPDRFSGSGSGTDFTLKISRVEAEDVGVYYCMQGTRWPYTFGQGTKVEIK",
    "measurement-unit": "%",
    "Inhibition % at 5.6 nM": 89.1
  },
  {
    "binder": "33G8 (antibody, V domains shown) VH: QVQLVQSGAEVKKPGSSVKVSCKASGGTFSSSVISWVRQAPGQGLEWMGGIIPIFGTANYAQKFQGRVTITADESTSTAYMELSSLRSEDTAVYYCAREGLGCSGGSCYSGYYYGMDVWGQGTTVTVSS VL: DIVMTQSPLSLPVTPGEPASISCRSSQSLLHSNGYNYLDWYLQKPGQSPQLLIYQASTLGSGVPDRFSGSGSGTDFTLKISRVEAEDVGVYYCMQGTHWPYTFGQGTKLEIK",
    "measurement-unit": "%",
    "Inhibition % at 5.6 nM": 89.9
  },
  {
    "binder": "31B1 (antibody, V domains shown, also called 780_38; 33B1 and 31B2 (apparent misprints)) VH: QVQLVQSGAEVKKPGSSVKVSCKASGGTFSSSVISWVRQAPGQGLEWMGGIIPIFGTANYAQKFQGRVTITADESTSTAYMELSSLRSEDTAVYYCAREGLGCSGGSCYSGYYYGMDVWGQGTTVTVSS VL: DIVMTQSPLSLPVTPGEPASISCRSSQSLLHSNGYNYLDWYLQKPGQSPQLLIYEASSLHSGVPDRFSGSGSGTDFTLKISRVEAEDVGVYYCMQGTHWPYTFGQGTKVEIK",
    "measurement-unit": "%",
    "Inhibition % at 5.6 nM": 90.2
  }
]
